Measured values drawn from patent US20240391931A1 for this set.

Recorded pIC50, one value per entry.
# experimental-target: HER2YVMA (Homo sapiens, UniProt P04626, INS775YVMA)
# Sequence (P04626 with tags, fused parts or gaps INS775YVMA): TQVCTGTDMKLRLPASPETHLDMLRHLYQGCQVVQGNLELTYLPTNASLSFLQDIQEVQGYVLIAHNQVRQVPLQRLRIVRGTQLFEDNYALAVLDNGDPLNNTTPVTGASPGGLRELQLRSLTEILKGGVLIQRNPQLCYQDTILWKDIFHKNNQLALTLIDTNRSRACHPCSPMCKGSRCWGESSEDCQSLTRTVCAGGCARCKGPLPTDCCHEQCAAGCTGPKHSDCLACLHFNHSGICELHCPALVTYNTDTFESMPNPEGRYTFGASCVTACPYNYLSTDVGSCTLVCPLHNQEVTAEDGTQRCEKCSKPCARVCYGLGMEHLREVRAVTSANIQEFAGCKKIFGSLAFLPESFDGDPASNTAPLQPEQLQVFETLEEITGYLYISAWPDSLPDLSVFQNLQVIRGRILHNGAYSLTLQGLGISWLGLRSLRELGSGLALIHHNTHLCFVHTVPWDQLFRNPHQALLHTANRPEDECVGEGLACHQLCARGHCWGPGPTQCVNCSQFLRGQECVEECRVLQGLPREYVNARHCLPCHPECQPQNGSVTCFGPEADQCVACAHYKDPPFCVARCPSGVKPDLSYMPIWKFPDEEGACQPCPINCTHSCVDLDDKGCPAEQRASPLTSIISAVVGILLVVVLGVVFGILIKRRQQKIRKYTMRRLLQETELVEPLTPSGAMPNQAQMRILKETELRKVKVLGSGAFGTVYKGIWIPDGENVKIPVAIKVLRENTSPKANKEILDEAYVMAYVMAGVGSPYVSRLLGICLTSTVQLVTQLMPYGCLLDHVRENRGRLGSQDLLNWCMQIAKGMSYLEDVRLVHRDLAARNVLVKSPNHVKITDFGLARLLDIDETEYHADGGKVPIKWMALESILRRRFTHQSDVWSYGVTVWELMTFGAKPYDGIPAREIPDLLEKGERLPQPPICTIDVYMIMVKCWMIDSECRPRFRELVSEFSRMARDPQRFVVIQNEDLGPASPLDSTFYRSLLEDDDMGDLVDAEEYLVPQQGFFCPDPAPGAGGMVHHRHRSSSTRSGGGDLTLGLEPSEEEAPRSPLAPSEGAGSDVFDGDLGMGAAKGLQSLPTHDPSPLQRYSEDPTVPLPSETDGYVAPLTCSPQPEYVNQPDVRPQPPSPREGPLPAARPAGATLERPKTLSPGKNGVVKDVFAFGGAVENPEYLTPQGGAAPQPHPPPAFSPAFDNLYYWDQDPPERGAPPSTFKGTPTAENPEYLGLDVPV
# measurement-protocol: Enzymatic assay HER2YVMA (method b)
# particulars: [HER2YVMA]=5 nM, [ATP]=25 μM, [Peptide 22]=1 μM
# Protocol: A 2× stock solution of HER2 WT (ERBB2 0108-0000-1; ProQinase, Freiburg, Germany) corresponding to method a, was prepared as described below. Alternatively, a 2× stock solution of HER2YVMA (custom purification; Viva biotech, Shanghai, China) corresponding to method b, was prepared as described below. For method c, a 2× stock of EGFR (ERBB1 PR7295B, Thermo Fisher, Carlsbad, CA) was prepared as described below. […]
pIC50: −log10 of the molar value.

compound: Cc1cc(Nc2ncnc3sc4c(c23)CN(C(=O)/C=C/CN(C)C)C4)ccc1Oc1ccn2ncnc2c1
pIC50: > 7.00
--
compound: Cc1cc(Nc2ncnc3sc4c(c23)CCN(C(=O)/C=C/CN(C)C)CC4)ccc1Oc1ccn2ccnc2c1
pIC50: > 7.00
--
compound: Cc1ccc(Oc2ccc(Nc3ncnc4sc5c(c34)CCN(C(=O)/C=C/CNC3CCC(C(=O)N(C)C)CC3)C5)cc2C)cn1 (centres unmarked)
pIC50: > 7.00
--
compound: Cc1ccc(Oc2ccc(Nc3ncnc4sc5c(c34)CCN(C(=O)/C=C/CN3CC4CC4(CO)C3)C5)cc2C)cn1 (centres unmarked)
pIC50: > 7.00
--
compound: Cc1ccc(Oc2ccc(Nc3ncnc4sc5c(c34)CCN(C(=O)/C=C/CN3C[C@H]4CC[C@@H](C3)O4)C5)cc2C)cn1
pIC50: > 7.00
--
compound: CC(=O)N1CCN(C/C=C/C(=O)N2CCc3c(sc4ncnc(Nc5ccc(Oc6ccc(C)nc6)c(C)c5)c34)C2)CC1
pIC50: 6.00 to 7.00
--
compound: C=CC(=O)N1CCc2c(sc3ncnc(Nc4ccc(Oc5ccc6ncnn6c5)c(Cl)c4)c23)C1
pIC50: > 7.00
--
compound: C=CC(=O)N1CCc2[nH]c3ncnc(Nc4ccc(Oc5ccc6ncnn6c5)c(C)c4)c3c2C1
pIC50: > 7.00
--
compound: Cc1ccc(Oc2ccc(Nc3ncnc4sc5c(c34)CCN(C(=O)/C=C/CN3CCCCC3(C)CO)C5)cc2C)cn1 (centres unmarked)
pIC50: > 7.00
--
compound: Cc1cc(Nc2ncnc3sc4c(c23)CCN(C(=O)/C=C/CN2CC(C)OC(C)C2C)C4)ccc1Oc1ccc2ncnn2c1 (centres unmarked)
pIC50: 6.00 to 7.00
--
compound: Cc1ccc(Oc2ccc(Nc3ncnc4sc5c(c34)CCN(C(=O)/C=C/CN(C)C(C)(C)C)C5)cc2C)cn1
pIC50: > 7.00
--
compound: Cc1ccc(Oc2ccc(Nc3ncnc4sc5c(c34)CCN(C(=O)/C=C/CN3C[C@H]4C[C@@H]3CC4C#N)C5)cc2C)cn1 (some centres unmarked)
pIC50: > 7.00
--
compound: Cc1ccc(Oc2ccc(Nc3ncnc4sc5c(c34)CN(C(=O)C=CCN(C)C)C5C)cc2C)cn1 (single isomer, unassigned) [Compound 169]
pIC50: > 7.00
--
compound: C=CC(=O)N1[C@H](C)Cc2c(sc3ncnc(Nc4ccc(Oc5ccc(C)nc5)c(C)c4)c23)[C@H]1C (racemic)
pIC50: 6.00 to 7.00

====

# experimental-target: EGFR (Homo sapiens)
# Sequence (P00533 25-1210): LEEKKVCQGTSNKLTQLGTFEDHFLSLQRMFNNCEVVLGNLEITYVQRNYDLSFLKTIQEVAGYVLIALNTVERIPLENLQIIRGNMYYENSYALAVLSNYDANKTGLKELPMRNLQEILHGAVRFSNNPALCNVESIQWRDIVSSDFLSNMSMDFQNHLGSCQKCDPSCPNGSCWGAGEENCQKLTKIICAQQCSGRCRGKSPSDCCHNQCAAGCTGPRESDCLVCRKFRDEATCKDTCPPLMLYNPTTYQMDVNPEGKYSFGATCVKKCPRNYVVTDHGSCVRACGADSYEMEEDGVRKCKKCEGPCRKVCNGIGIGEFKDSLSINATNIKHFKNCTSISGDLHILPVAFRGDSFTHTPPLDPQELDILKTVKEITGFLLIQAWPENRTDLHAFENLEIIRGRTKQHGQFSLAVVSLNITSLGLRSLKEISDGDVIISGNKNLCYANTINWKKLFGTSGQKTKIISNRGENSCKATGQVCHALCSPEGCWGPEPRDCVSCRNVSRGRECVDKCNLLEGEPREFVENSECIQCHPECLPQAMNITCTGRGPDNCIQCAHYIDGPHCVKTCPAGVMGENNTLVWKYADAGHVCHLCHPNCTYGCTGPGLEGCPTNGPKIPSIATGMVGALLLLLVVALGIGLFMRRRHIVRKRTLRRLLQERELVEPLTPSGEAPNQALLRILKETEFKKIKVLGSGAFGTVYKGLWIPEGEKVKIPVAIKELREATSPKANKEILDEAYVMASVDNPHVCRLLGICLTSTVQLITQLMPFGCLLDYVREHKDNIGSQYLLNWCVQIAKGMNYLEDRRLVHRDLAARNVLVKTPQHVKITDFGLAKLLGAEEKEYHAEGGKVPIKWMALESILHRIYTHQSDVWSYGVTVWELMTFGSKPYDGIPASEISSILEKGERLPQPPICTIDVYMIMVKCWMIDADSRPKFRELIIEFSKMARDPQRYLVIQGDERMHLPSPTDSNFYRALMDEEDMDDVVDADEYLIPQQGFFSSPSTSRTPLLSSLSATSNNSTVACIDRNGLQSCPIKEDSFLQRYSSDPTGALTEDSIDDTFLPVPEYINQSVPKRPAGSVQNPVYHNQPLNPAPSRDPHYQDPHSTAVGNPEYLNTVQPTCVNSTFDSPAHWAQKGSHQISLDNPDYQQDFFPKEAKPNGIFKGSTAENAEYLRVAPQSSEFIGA
# measurement-protocol: EGFR signaling (pEGFR Tyr1068/total EGFR MSD) in A431 cells
# Type: cell-based
# Design: endogenous in cells; host or cells: A431, N87
# particulars: ratio A431 pEGFR EC50 to HEK YVMA pHER2 EC50

compound: CCN(CC)C/C=C/C(=O)N1CCc2c(sc3ncnc(Nc4ccc(Oc5ccc(C)nc5)c(C)c4)c23)C1
Selectivity A431 EC50/HEKYVMA EC50: D (D: ≥ 5 and < 10)

compound: Cc1ccc(Oc2ccc(Nc3ncnc4sc5c(c34)C[C@@H](C)N(C(=O)/C=C/CN(C)C)[C@H]5C)cc2C)cn1 (racemic)
Selectivity A431 EC50/HEKYVMA EC50: D (D: ≥ 5 and < 10)

====

Recorded IC50, one value per entry.
# experimental-target: HER2YVMA (Homo sapiens, UniProt P04626, INS775YVMA)
# measurement-protocol: Enzymatic assay HER2YVMA (method b)
# Assay type: biochemical
# Parameters: purchased Viva biotech, Shanghai, China custom purification
# particulars: [HER2YVMA]=5 nM, [ATP]=25 μM, [Peptide 22]=1 μM
measurement-label: IC50

compound: Cc1ccc(Oc2ccc(Nc3ncnc4sc5c(c34)CCN(C(=O)/C=C/CN3CC4CC(C3)O4)C5)cc2C)cn1
recorded-value: 100 to 1000 nM
//
compound: C=CC(=O)N1CCc2c(sc3ncnc(Nc4ccc(Oc5ccc6ncnn6c5)c(C)c4)c23)C1
recorded-value: < 100 nM
//
compound: Cc1cc(Nc2ncnc3sc4c(c23)CCN(C(=O)/C=C/CN2CCOC[C@@H]2C)C4)ccc1Oc1ccc2ncnn2c1
recorded-value: 100 to 1000 nM
//
compound: Cc1ccc(Oc2ccc(Nc3ncnc4sc5c(c34)CCN(C(=O)/C=C/CN3CC(O)CO3)C5)cc2C)cn1 (stereo not shown)
recorded-value: 100 to 1000 nM
//
compound: Cc1ccc(Oc2ccc(Nc3ncnc4sc5c(c34)CCN(C(=O)/C=C/CN3CCOCC34CCC4)C5)cc2C)cn1
recorded-value: 100 to 1000 nM
//
compound: Cc1ccc(Oc2ccc(Nc3ncnc4sc5c(c34)CC(C)N(C(=O)C=CCN(C)C)C5C)cc2C)cn1 (single isomer, unassigned) [Compound 161]
recorded-value: < 100 nM
//
compound: Cc1ccc(Oc2ccc(Nc3ncnc4sc5c(c34)CCN(C(=O)/C=C/CNCC3CN(C)CCO3)C5)cc2C)cn1 (stereo not shown)
recorded-value: < 100 nM
//
compound: Cc1ccc(Oc2ccc(Nc3ncnc4sc5c(c34)CCN(C(=O)/C=C/CNCCO)C5)cc2C)cn1
recorded-value: < 100 nM
//
compound: COc1ccc(Oc2ccc(Nc3ncnc4sc5c(c34)CCN(C(=O)/C=C/CN3CCOCC3)C5)cc2C)cn1
recorded-value: 100 to 1000 nM
//
compound: Cc1cc(Nc2ncnc3sc4c(c23)CCN(C(=O)/C=C/CN2CC3C(CO)C3C2)C4)ccc1Oc1ccc2ncnn2c1 (stereo not shown)
recorded-value: < 100 nM
//
compound: Cc1ccc(Oc2ccc(Nc3ncnc4sc5c(c34)CCN(C(=O)/C=C/CN(C)C)C5)cc2C)cn1
recorded-value: < 100 nM
//
compound: Cc1ccc(Oc2ccc(Nc3ncnc4sc5c(c34)CCN(C(=O)/C=C/CN3CCC[C@H](CO)C3)C5)cc2C)cn1
recorded-value: < 100 nM
//
compound: Cc1ccc(Oc2ccc(Nc3ncnc4sc5c(c34)C[C@@H](C)N(C(=O)/C=C/CN(C)C)[C@@H]5C)cc2C)cn1 (racemic)
recorded-value: 100 to 1000 nM
//
compound: Cc1ccc(Oc2ccc(Nc3ncnc4sc5c(c34)CCN(C(=O)/C=C/CN3CCC[C@@H](CO)C3)C5)cc2C)cn1
recorded-value: < 100 nM
//
compound: Cc1ccc(Oc2ccc(Nc3ncnc4sc5c(c34)CCN(C(=O)/C=C/CN3CCn4cc(C(F)(F)F)nc4C3)C5)cc2C)cn1
recorded-value: 1000 to 10000 nM
//
compound: Cc1ccc(Oc2ccc(Nc3ncnc4sc5c(c34)C(C)N(C(=O)/C=C/CN(C)C)C5)cc2C)cn1 (stereo not shown)
recorded-value: < 100 nM
//
compound: Cc1cc(Nc2ncnc3sc4c(c23)CCN(C(=O)/C=C/CN(C)C)C4)ccc1Oc1ccc2ncnn2c1
recorded-value: 100 to 1000 nM
//
compound: Cc1ccc(Oc2ccc(Nc3ncnc4sc5c(c34)C(C)CN(C(=O)/C=C/CN(C)C)C5)cc2Cl)cn1 (stereo not shown)
recorded-value: < 100 nM
//
compound: Cc1cn2ccc(Oc3ccc(Nc4ncnc5sc6c(c45)CCN(C(=O)/C=C/CN(C)C)C6)cc3C)cc2n1
recorded-value: < 100 nM
//
compound: CC[C@H](NC/C=C/C(=O)N1CCc2c(sc3ncnc(Nc4ccc(Oc5ccc(C)nc5)c(C)c4)c23)C1)C(F)(F)F
recorded-value: < 100 nM
//
compound: Cc1cc(Nc2ncnc3sc4c(c23)CCN(C(=O)/C=C/CN2CC3CCC(C3)C2)C4)ccc1Oc1ccc2ncnn2c1
recorded-value: < 100 nM
//
compound: Cc1ccc(Oc2ccc(Nc3ncnc4sc5c(c34)CCN(C(=O)/C=C/CN3CC4CC4C3)C5)cc2C)cn1 (stereo not shown)
recorded-value: < 100 nM
//
compound: O=C(/C=C/CN1CCOCC1)N1CCc2c(sc3ncnc(Nc4ccc(Oc5ccc6ncnn6c5)c(Cl)c4)c23)C1
recorded-value: < 100 nM
//
compound: Cc1ccc(Oc2ccc(Nc3ncnc4sc5c(c34)CCN(C(=O)/C=C/CNC34CCC(C#N)(CC3)CC4)C5)cc2C)cn1
recorded-value: < 100 nM
//
compound: COc1ccc(Oc2ccc(Nc3ncnc4sc5c(c34)CCN(C(=O)/C=C/CN(C)C)C5)cc2C)cn1
recorded-value: < 100 nM
//
compound: O=C(/C=C/CN1CC2C(CO)C2C1)N1CCc2c(sc3ncnc(Nc4ccc(Oc5ccc6ncnn6c5)c(Cl)c4)c23)C1 (stereo not shown)
recorded-value: < 100 nM
//
compound: C=CC(=O)N1Cc2sc3ncnc(Nc4ccc(Oc5ccc(C)nc5)c(C)c4)c3c2C(C)C1 (stereo not shown) [Compound 142]
recorded-value: < 100 nM
//
compound: Cc1cc(Nc2ncnc3sc4c(c23)CCN(C(=O)/C=C/CN(C)C)CC4)ccc1Oc1ccn2ncnc2c1
recorded-value: 100 to 1000 nM
